All figures here come from the supplement of paper PMC6555819.

test system: RARa homodimer (NR concentration 270 nM); assay: PBM binding z-score (relative to random genomic background probes); higher = stronger binding; sequences stand for … in GC…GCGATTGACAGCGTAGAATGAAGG
observed.property: PBM binding z-score
Please reply with the number alone, leaving off any unit.

ordered_residues=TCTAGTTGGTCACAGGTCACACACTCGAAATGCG recorded_measurement=1.49
ordered_residues=AGTCAAAGTTCAGGAGGAGGTAACGTAAAGCACG recorded_measurement=1.91
ordered_residues=CCGACTGGGGCAAAGGTTATCATACTCAGTACGA recorded_measurement=-0.00422
ordered_residues=TGAAGGAGGTTAAAGATCAGGGAACGTGGCGTCG recorded_measurement=0.897
ordered_residues=ATCGAAAGGTCGACGAGGTAAGTATACACCGTTT recorded_measurement=0.419

For record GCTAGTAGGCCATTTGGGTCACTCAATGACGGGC the listed PBM binding z-score is -0.704

For record AGAATGAGGTTAAGATCAGGCAAACAGAATACAT the listed PBM binding z-score is 0.263

For record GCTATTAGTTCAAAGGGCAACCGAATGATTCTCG the listed PBM binding z-score is 1.11

For record GATACAGGGTCAAGGCCAGTGTACGCGTATTGAT the listed PBM binding z-score is 0.237

For record AGAACGAGGGAACGCTGAGTTGATAGCAGAGTAG the listed PBM binding z-score is 0.201

For record GTACCAAGGTGGATAGGTCGTTGATGAGTAGGCG the listed PBM binding z-score is 0.114

For record CGAACTAGGTCATCCAGGACAGTGCATACATTGA the listed PBM binding z-score is 0.873

For record GGAACTAGGGCATTCGAGTTGATAGCATGGCGAT the listed PBM binding z-score is -0.515

For record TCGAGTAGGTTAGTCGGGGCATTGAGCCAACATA the listed PBM binding z-score is -0.979

For record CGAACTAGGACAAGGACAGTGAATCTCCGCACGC the listed PBM binding z-score is -0.389

For record GCTAGTTGTTCAGTAAAAGGTCACACACCGGTCG the listed PBM binding z-score is 2.41

For record CTACCAAGGTGAAAAAGGTCGTTGATTACTATTC the listed PBM binding z-score is 0.555

For record CCGACTGGGGCAAAAGTTACCATACTCAGTACGA the listed PBM binding z-score is -0.135

For record TCGAGTAGGTTAGGGGAATTCAGAATGGCGTCGA the listed PBM binding z-score is 0.338

For record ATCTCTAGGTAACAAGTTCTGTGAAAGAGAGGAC the listed PBM binding z-score is 0.681

For record CGTAGTTGGTCAGGAGGTCACACACCGGATATGA the listed PBM binding z-score is 1.81

For record TCTTGTAGATCAGCAGGTTATGAAAGCTGGCCAA the listed PBM binding z-score is -0.663

For record ATCTCTAGGTAAGACTCATTTCAGTGAAGAACGC the listed PBM binding z-score is 1.77

For record TAGCCTAGTTCATTGGGCCAGTATAGTACGCATC the listed PBM binding z-score is -0.777

---

system: RARg:RXRa (NR concentration 270 nM, RXRa partner concentration 90 nM); assay: PBM binding z-score (relative to random genomic background probes); higher = stronger binding; sequences stand for … in GC…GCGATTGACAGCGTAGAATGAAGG
observed.property: PBM binding z-score

Illustrative cases are given below, each with its answer.
ordered_residues=CCTAATGGGCCAAAGGTCATTGATTCCAATGCTC target_or_test_system="RARg:RXRa (NR concentration 270 nM, RXRa partner concentration 90 nM)" observed_property="PBM binding z-score" recorded_measurement=5.84
ordered_residues=CAAGCTAGGTCACGAAAGGTCAAAGTCGAATGAC target_or_test_system="RARg:RXRa (NR concentration 270 nM, RXRa partner concentration 90 nM)" observed_property="PBM binding z-score" recorded_measurement=8.18
ordered_residues=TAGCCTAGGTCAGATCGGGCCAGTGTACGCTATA target_or_test_system="RARg:RXRa (NR concentration 270 nM, RXRa partner concentration 90 nM)" observed_property="PBM binding z-score" recorded_measurement=2.57

RARg:RXRa (NR concentration 270 nM, RXRa partner concentration 90 nM) assay, sequence GGAACGAGGGCAAGTTGACAGCAGAGTTTGATGG , recorded PBM binding z-score = 1.71

RARg:RXRa (NR concentration 270 nM, RXRa partner concentration 90 nM) assay, sequence GGAACGAGGGCATTCCAGTTGATAGCATGGCGAT , recorded PBM binding z-score = 1.1

RARg:RXRa (NR concentration 270 nM, RXRa partner concentration 90 nM) assay, sequence TCTAGTTGGTCAGGGAGGTCACACACGACGGGTA , recorded PBM binding z-score = 4.31
